Test summary: qHTS assay to identify small molecule antagonists of the androgen receptor (AR) signaling pathway using the MDA cell line in the presence of 0.5 nM R1881 - cell viability counter screen (AID 1259242); note: nearly all actives have a fitted effect of over 45% in size
Experimental parameters: MDA-kb2 viability, CellTiter-Fluor protease fluorescence, 16 h; series mostly up to 92.4 µM
Records with an inconclusive call do not appear. Activity calls are given as the source filed them. Calls come from the whole dose curve; as a rule, active = well fitted cell-killing curve with a large enough effect in the repeat runs; inconclusive = weak or mixed curves, or effect the other way; inactive = flat fitted curve, though single readings scatter.
Thanks in advance; please answer with one of these: True (active), False (inactive)

What call does the record list for "CC(=O)c1ccc(C(C)=O)cc1" ?
False

Same for "Nc1cc(Cl)c(O)c(Cl)c1"
False

// query: "CCCc1ccc(OCC(=O)N2CCN(C(=O)COc3ccc(CCC)cc3OC)CC2)c(OC)c1"
False

Same for "CC(=O)CC(=O)Nc1ccc(S(=O)(=O)O)cc1"
False

Also "CC[C@H](C)COC(=O)/C=C/c1ccc(N=Cc2ccc(OC)cc2)cc1" , if possible.
False

"Cc1ccc(O)c(O)c1" ?
False

Moving on to the next compound: "O=c1oc2cc(O)ccc2c2oc3cc(O)ccc3c12"
False

Another compound to look at: "CC1(C)CC(O)CC(C)(C)N1"
False

Same for "Cc1cccc(C(=O)O)c1O"
False

Same read-out for "C=Cc1ccccc1C=C" ?
False

What about "Cc1cccc(C)c1NC(=O)c1ccc(N)cc1" ?
False

Likewise for "O=S(=O)(O)c1ccc(Nc2nc(Nc3ccc(/C=C/c4ccc(Nc5nc(Nc6ccc(S(=O)(=O)O)cc6)nc(N(CCO)CCO)n5)cc4S(=O)(=O)O)c(S(=O)(=O)O)c3)nc(N(CCO)CCO)n2)cc1" ?
False

Would you mind doing "COc1ccc(-c2coc3cc(O)ccc3c2=O)cc1" as well?
False

# repeat for "Cc1nc(-c2ccc(Cl)cc2)oc1COC(C)(C)C(=O)O"
False

// same read-out, input: Cc1cc(C(C#N)c2ccc(Cl)cc2)c(Cl)cc1NC(=O)c1cc(I)cc(I)c1O (stereo not drawn)
False

Now the same for "Cc1cc(C)c(/C=C2\C(=O)Nc3ccccc32)[nH]1"
False

Entry "O=c1c(O)c(-c2ccc(O)cc2O)oc2cc(O)cc(O)c12" please
False

Then what about the compound "c1ccc(SSc2ccccc2)cc1" ?
False

Entry CCCCN(CCCC)CC(O)c1cc(Cl)cc2c1-c1ccc(Cl)cc1/C2=C/c1ccc(Cl)cc1 (stereo not drawn) please
False

Continue with CC(CCc1ccccc1)NCC(O)c1ccc(O)c(C(N)=O)c1 (stereo not drawn)
False

Ok, now "S=C([S-])NCCNC(=S)[S-].S=C([S-])NCCNC(=S)[S-].[Mn+2].[Zn+2]"
False

Okay, and "COc1cc(S(=O)(=O)O)c(C)cc1N=Nc1c(O)ccc2cc(S(=O)(=O)O)ccc12" ?
True

Next up: CN1CCCCC1CCN1c2ccccc2Sc2ccc(S(C)=O)cc21 (stereo not drawn)
False

Now give it for "O=c1[nH]c2ccccc2n1CCCN1CCN(C(c2ccccc2)c2ccccc2)CC1" too.
False

Query "C#C[C@]1(O)CC[C@H]2[C@@H]3[C@H](C)CC4=C(CCC(=O)C4)[C@H]3CC[C@@]21C" next
False

Next compound up: "CCCC[P+](C)(CCCC)CCCC"
False

Next: "OC[C@@H](O)[C@@H](O)CO"
False

Please do the same for "OCC(F)(F)F" as well.
False

Now the same for "CCc1ccc(Br)cc1"
False

Moving on to the next compound: "S=c1nccc[nH]1"
False

Ok, now "CCCNCCC"
False

Consider next the compound "Cc1nc2n(c(=O)c1CCN1CCC(c3noc4cc(F)ccc34)CC1)CCCC2" in the same way.
False

And what about the compound "FC(F)(F)c1cccc(Cl)c1" ?
False
